# Experimental System: GFP-tagged K-rasG12V (oncogenic K-ras) in MDCK cells (Homo sapiens, UniProt P01116, G12V)
# Construct: mGFP-tagged full length oncogenic mutant K-Ras (GFP-K-RasG12V); expressed in transfected cells
# Sequence (P01116 1-188 isoform P01116-2 G12V): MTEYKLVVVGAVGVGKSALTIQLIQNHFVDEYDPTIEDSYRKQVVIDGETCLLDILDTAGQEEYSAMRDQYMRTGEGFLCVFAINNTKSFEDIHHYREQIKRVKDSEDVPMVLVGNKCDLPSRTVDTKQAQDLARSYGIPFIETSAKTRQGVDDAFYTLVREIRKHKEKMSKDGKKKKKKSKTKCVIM
# Experiment: K-ras mislocalization, confocal fluorescence microscopy with densitometric analysis
# Type: cell-based, canine
# Conditions Used: 4 μM compound, 48 hours, MDCK cells stably expressing GFP-tagged K-rasG12V; normalized to vehicle-treated control; read-out: % Mislocalization of K-ras when treated with 4 μM compound
# Protocol: FIGS. 1 & 2—Representative images showing degree of K-ras mislocalization with compound treatment (images corresponds with column 3 of Table 2). […] To determine the effect of compounds on localization of K-ras, Mardine Darby canine kidney epithelial (MDCK) cells stably expressing GFP-tagged K-rasG12V (oncogenic K-ras) grown on cover slips were treated with vehicle or compound (4 μM) for 48 hours and fixed with 4% paraformaldehyde. […] Images were analyzed by ImageJ software. […]
Classify on inhibition at 4 µM using low end: < 10%; middle: ≥ 10% and < 30%; high end: ≥ 30%

The following compounds have reported results that may help.
INSERT INTO measurements (compound, classification) VALUES
  ('C[C@@H](NCC=C(c1ccccc1)c1ccccc1)c1ccccc1', 'high end'),
  ('C[C@H](NC/C=C/c1ccccc1)c1ccccc1', 'middle'),
  ('C[C@@H](NC/C=C(\c1ccccc1)c1ccc([N+](=O)[O-])cc1)c1ccccc1', 'middle'),
  ('CC(NCC=C(c1ccccc1)c1ccccc1)c1ccc(F)cc1 (centres unmarked)', 'high end'),
  ('COC(=O)[C@H](NCC=C(c1ccccc1)c1ccccc1)c1ccccc1', 'high end'),
  ('C[C@@H](NC/C=C(\c1ccccc1)c1ccc(N)cc1)c1ccccc1', 'middle'),
  ('CC(NCC=C(c1ccccc1)c1ccccc1)c1ccc(Br)cc1 (centres unmarked)', 'high end'),
  ('C[C@@H](NC(=O)CC(c1ccccc1)c1ccccc1)c1ccccc1', 'middle');

Query block: Class label required: CC(C(=O)NCC(c1ccccc1)c1ccccc1)c1ccccc1 (centres unmarked)
Result block: middle

Query block: Class label required: `COC(=O)[C@H](NCC=C(c1ccccc1)c1ccccc1)c1ccc(F)cc1`
Result block: middle

Query block: Class label required: C[C@H](OC/C=C/c1ccccc1)c1ccccc1 [Compound 25, (S,E)-(1-(cinnamyloxy)ethyl)benzene]
Result block: high end

Query block: Class label required: `COC(=O)[C@H](NC/C=C/c1ccccc1)c1ccccc1`
Result block: low end

Query block: Class label required: `C[C@@H](NC/C=C/c1ccc(-c2ccccc2)cc1)c1ccccc1`
Result block: low end

Query block: Class label required: `C[C@@H](NC/C=C(/c1ccccc1)c1ccc(N)cc1)c1ccccc1`
Result block: low end

Query block: Class label required: `C/C=C(/CN[C@H](C)c1ccccc1)c1ccccc1`
Result block: low end

Query block: Class label required: `C[C@@H](NCC=C(c1ccccc1)c1ccccc1)c1ccc([N+](=O)[O-])cc1`
Result block: high end

Query block: Class label required: `c1ccc(CNCCC(c2ccccc2)c2ccccc2)cc1`
Result block: middle
